target: Leucine-rich repeat serine/threonine-protein kinase 2 (Homo sapiens, UniProt Q5S007, G2019S); assay: Inhibition of recombinant human GST-tagged LRRK2 G2019S mutant catalytic domain (970 to 2527 residues) expressed in insect cells using RtGWWRFYTLRRARQGNTKQR as substrate measured after 180 mins in presence of [gamma33P]ATP by topcount method
Sequence (Q5S007 whole entry G2019S, the tested form may be a part): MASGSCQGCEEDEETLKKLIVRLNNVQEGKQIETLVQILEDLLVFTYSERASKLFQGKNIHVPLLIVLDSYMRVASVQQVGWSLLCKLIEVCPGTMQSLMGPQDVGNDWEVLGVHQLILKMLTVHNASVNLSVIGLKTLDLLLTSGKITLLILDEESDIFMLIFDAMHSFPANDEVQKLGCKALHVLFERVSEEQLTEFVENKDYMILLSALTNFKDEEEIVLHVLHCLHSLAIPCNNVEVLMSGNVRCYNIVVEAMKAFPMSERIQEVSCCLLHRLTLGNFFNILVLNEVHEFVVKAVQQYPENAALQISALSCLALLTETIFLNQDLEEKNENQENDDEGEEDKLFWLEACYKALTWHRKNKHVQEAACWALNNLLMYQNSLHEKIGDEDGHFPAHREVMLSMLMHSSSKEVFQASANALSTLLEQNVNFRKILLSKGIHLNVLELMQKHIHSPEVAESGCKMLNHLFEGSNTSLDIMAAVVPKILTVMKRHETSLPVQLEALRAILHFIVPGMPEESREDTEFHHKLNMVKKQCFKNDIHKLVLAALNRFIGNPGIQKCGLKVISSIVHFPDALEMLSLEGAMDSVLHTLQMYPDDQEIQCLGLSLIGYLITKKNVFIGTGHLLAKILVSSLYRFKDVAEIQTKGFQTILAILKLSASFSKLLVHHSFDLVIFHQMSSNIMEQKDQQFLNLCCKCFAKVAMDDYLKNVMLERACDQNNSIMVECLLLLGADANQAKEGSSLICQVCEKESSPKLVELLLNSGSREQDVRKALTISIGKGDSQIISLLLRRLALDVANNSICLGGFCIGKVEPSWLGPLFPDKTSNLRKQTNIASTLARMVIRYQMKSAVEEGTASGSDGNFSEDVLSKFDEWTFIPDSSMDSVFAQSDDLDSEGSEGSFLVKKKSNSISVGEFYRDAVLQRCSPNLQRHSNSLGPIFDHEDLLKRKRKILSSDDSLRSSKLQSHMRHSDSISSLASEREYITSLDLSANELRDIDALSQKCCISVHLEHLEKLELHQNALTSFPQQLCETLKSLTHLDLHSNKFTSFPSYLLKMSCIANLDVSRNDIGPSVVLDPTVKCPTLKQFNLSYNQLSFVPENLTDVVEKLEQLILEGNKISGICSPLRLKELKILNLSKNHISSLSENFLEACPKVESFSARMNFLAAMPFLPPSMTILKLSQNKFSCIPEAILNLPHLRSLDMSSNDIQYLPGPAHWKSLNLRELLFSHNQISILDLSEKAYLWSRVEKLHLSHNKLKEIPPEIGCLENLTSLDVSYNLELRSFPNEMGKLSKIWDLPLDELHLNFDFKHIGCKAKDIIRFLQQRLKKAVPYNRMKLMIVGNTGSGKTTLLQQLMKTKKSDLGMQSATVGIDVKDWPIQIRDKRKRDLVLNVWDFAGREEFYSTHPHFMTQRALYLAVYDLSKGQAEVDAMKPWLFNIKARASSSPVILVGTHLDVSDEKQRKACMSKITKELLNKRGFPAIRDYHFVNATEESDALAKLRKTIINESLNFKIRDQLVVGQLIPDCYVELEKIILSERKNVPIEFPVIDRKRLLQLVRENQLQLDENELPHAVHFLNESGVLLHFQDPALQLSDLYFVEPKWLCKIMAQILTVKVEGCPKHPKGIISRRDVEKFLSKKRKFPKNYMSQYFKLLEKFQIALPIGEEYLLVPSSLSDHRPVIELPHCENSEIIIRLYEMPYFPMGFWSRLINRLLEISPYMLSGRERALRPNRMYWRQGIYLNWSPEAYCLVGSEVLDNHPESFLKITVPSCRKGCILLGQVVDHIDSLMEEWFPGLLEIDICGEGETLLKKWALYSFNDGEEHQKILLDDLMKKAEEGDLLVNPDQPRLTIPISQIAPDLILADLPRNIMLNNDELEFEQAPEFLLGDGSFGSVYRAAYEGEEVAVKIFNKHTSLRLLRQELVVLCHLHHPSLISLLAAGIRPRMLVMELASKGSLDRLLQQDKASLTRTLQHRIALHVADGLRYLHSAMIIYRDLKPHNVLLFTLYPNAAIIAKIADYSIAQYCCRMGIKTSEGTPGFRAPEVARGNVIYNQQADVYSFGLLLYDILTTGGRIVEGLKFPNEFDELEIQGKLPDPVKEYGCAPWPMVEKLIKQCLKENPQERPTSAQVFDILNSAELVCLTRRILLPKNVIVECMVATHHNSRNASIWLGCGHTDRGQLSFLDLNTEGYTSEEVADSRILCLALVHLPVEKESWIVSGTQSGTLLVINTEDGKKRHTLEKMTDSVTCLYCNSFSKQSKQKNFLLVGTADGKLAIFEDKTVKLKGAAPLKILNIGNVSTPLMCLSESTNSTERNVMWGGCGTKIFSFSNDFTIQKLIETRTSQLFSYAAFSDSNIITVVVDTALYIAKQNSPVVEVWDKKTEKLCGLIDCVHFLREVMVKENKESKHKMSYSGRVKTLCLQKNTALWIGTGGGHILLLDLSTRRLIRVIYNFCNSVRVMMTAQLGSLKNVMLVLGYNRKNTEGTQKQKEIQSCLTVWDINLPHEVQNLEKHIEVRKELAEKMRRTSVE
pKi: −log10 of the molar value.
quantity measured: pKi

Just so you know, measured pKi for c1cc(-c2n[nH]c3ccnc(OC4CCOCC4)c23)[nH]n1 came out at 7.36

pKi measured on CC(C)n1cc(-c2n[nH]c3ccnc(NC4CCOCC4)c23)nn1 = 8.92

[P] CC(C)c1n[nH]c(-c2n[nH]c3ccnc(OC4CCOCC4)c23)n1
[Q] FC(F)(F)c1cc(-c2n[nH]c3ccnc(NC4CCOCC4)c23)ncn1
[R] CC(C)Nc1nccc2[nH]nc(-c3nnc(C4CC4)n3C)c12
[S] CC(C)(O)Cn1cc(-c2n[nH]c3ccnc(OC4CCOCC4)c23)cn1
// sort entries: pKi, high to low Give your ranking as a list of the labels in the requested order.
Q, S, R, P

[1] CCc1cc(-c2n[nH]c3ccnc(NC4CCOCC4)c23)n(C)n1
[2] CCc1cc(-c2n[nH]c3ccnc(NC(C)C)c23)nn1C
[3] c1cc(-c2n[nH]c3ccnc(OC4CCOCC4)c23)nc(N2CCOCC2)c1
# rank by pKi, ascending (min first) To answer, arrange all of the labels according to the requested order.
1, 3, 2
(1: 5.41, 3: 6.83, 2: 8.46)

[P] Cc1n[nH]c2ccnc(NC3CCOCC3)c12
[Q] CC(C)c1nc(-c2n[nH]c3ccnc(NC4CCOCC4)c23)n[nH]1
So which one has the bigger pKi here, P or Q ? Lab log: write the label of the selected item as the result.
Q

====

experiment: Oral bioavailability in rat at 1 mg/kg; assay type: ADME, organism-based; settings: in vivo
quantity measured: bioavailability (%)
Use % as the unit, but write only the number.

FC(F)(F)c1cc(-c2n[nH]c3ccnc(NC4CCOCC4)c23)ncn1 has a reported bioavailability of 62

====

test: Ratio of fAUC in rat brain to plasma at 0.5 mg/kg, iv; format: ADME, organism-based; details: brain and plasma
quantity measured: Kp uu
Answer with the value's number alone.

Form field Kp uu, entry FC(F)(F)c1cc(-c2n[nH]c3ccnc(NC4CCOCC4)c23)ncn1 : 0.22

====

biological target: Leucine-rich repeat serine/threonine-protein kinase 2 (Homo sapiens, UniProt Q5S007, G2019S); assay: Inhibition of LRRK2 G2019S mutant (unknown origin) by cell based assay
pIC50: −log10 of the molar value.
quantity measured: pIC50

For record FC(F)(F)c1cc(-c2n[nH]c3ccnc(NC4CCOCC4)c23)ncn1 the listed pIC50 is 7.62

[P] c1cc(-c2n[nH]c3ccnc(NC4CCOCC4)c23)cc(N2CCOCC2)n1
[Q] c1cc(-c2n[nH]c3ccnc(OC4CCOCC4)c23)cc(N2CCOCC2)n1
[R] c1ccc(-c2n[nH]c3ccnc(NC4CCOCC4)c23)nc1
Task field, ranking: reported pIC50, descending order. Respond with the label ranking, as requested.
Q, R, P

====

target: Leucine-rich repeat serine/threonine-protein kinase 2 (Homo sapiens, UniProt Q5S007, G2019S); assay: Inhibition of LRRK2 G2019S mutant (unknown origin) by cell based assay
quantity measured: IC50 (nM)

Worked set:
# compound CC(C)n1cc(-c2n[nH]c3ccnc(NC4CCOCC4)c23)nn1 ; its IC50 = 49

The recorded IC50 for CC(C)c1nc(-c2n[nH]c3ccnc(NC4CCOCC4)c23)n[nH]1 is 35

CC(C)(O)Cn1cc(-c2n[nH]c3ccnc(OC4CCOCC4)c23)cn1 has a reported IC50 of 13

[I] CCc1cc(-c2n[nH]c3ccnc(NC4CCOCC4)c23)nn1C
[II] Cc1n[nH]c2ccnc(OC3CCOCC3)c12
Identify the entry with the smaller IC50: I or II . Could you answer with the label of the item you picked?
I
